# targetOrTestSystem: T1, recombinant human IGSF11 (VSIG3) extracellular domain (ECD) (human, UniProt Q5DX21 23-241, biotinylated where captured on streptavidin)
# T1 construct: also called biotinylated recombinant ECD-IGSF11; IGSF11 (ECD domain)
# T1 sequence: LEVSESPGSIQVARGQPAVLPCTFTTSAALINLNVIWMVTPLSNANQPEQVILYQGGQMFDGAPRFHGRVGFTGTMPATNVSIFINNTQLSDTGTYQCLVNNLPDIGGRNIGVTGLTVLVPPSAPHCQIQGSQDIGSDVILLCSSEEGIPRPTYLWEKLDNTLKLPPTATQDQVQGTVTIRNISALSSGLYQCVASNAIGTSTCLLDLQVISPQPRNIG
# assayProtocol: SPR, IgG1
pKd: −log10 of the molar value.
The following binders are listed with their measured pKd values.

[
  {
    "binder": "A-006 (IgG1 format) (antibody, V domains shown, human IgG1 format; also called A-006-like ABP) VH: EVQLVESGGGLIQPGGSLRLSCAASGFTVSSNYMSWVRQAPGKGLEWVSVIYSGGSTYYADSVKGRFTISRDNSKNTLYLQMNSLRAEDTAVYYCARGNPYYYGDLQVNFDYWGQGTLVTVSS VL: QAVVTQEPSLTVSPGGTVTLTCASSTGAVTSGYYPNWFQQKPGQAPRPLIYSTSNKHSWTPARFSGSLLGGKAALTLSGVQPDDEAEYYCLLYYGGDWVFGGGTKLTVL",
    "pKd": "6.30 to 6.60"
  },
  {
    "binder": "A-004 (IgG1 format) (antibody, V domains shown, human IgG1 format) VH: EVQLVESGGGLVKPGGSLRLSCAASGFTFSSYSMNWVRQAPGKGLEWVSSISSSSSYIYYADSVKGRFTISRDNAKNSLYLQMNSLRAEDTAVYYCARGQLLWFGESALIDAFDIWGQGTMVTVSS VL: EIVLTQSPSSLSASVGDRVTITCRASQSISSYLNWYQLKPGKAPKLLIYAASILQSGVPSRFSGSGSGTDFTLTISSLQPEDFAAYYCQQSYSTPRTFGQGTKLEIK",
    "pKd": "6.60 to 7.00"
  },
  {
    "binder": "A-011 (IgG1 format) (antibody, V domains shown, human IgG1 format) VH: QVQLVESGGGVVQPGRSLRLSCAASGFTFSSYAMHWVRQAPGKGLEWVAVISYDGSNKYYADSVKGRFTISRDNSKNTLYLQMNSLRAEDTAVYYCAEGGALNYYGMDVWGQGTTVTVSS VL: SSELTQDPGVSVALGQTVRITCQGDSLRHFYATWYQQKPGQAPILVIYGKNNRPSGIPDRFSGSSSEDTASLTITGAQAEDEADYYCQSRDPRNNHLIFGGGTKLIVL",
    "pKd": "6.30 to 6.60"
  },
  {
    "binder": "A-012 (IgG1 format) (antibody, V domains shown, human IgG1 format) VH: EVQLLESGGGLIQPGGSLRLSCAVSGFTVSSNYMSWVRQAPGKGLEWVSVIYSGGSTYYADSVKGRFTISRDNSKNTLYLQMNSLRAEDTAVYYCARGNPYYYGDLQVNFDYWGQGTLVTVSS VL: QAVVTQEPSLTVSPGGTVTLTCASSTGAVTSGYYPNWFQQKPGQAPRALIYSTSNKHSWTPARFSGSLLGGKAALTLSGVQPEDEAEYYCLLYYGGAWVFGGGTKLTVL",
    "pKd": "6.30 to 6.60"
  }
]

Query binder follows.
Task: Name the recorded pKd of the item A-013 (IgG1 format) (antibody, V domains shown, human IgG1 format) VH: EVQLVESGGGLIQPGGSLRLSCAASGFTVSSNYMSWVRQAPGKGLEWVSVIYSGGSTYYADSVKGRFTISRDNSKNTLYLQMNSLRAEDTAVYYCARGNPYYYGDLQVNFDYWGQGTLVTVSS VL: QAVVTQEPSLTVSPGGTVTLTCASSTGAVTSAYYPNWFQQKPGQAPRALIYSTSNKHSWTPARFSGSLLGGKAALTLSGVQPEDEADYYCLLYYGGAWVFGGGTKLTVL in your answer.
Output: 6.60 to 7.00
